Source listed as patent US20050192279A1.

Target: human α4β7 integrin (Homo sapiens, UniProt P13612+P26010)
Construct: expressed in transfected cells; host or cells: K562 cells, stably transfected
Assay: α4β7-K562 Cell Adhesion Assay (α4β7 Mediated Adhesion/MAdCAM-1)
Assay type: cell-based
Details: α4β7-K562 cell adhesion to hMAdCAM-1; read-out: α4β7 IC50
observedProperty: IC50

molSmiles: Cc1ccc(Oc2cnn(C(C)(C)C)c(=O)c2-c2ccc(C[C@H](NC(=O)c3c(Cl)cccc3Cl)C(=O)O)cc2)cc1
result: 1290 nM
--
molSmiles: COc1cnn(CCN2CCOCC2)c(=O)c1-c1ccc(C[C@H](NC(=O)[C@H](NC(=O)OC(C)(C)C)[C@H](C)O)C(=O)O)cc1
result: 480 nM
--
molSmiles: COc1cnn(C)c(=O)c1-c1ccc(C[C@H](NC(=O)OC23CC4CC(CC(C4)C2)C3)C(=O)O)cc1
result: 731 nM
--
molSmiles: Cn1nc2c(c(-c3ccc(C[C@H](NC(=O)c4c(Cl)cccc4Cl)C(=O)O)cc3)c1=O)OCCO2
result: 1 nM

---

Biological target: human α4β7 integrin (Homo sapiens, UniProt P13612+P26010)
Construct: expressed in transfected cells; host or cells: K562 cells, stably transfected
Sequence (P13612 34-1032): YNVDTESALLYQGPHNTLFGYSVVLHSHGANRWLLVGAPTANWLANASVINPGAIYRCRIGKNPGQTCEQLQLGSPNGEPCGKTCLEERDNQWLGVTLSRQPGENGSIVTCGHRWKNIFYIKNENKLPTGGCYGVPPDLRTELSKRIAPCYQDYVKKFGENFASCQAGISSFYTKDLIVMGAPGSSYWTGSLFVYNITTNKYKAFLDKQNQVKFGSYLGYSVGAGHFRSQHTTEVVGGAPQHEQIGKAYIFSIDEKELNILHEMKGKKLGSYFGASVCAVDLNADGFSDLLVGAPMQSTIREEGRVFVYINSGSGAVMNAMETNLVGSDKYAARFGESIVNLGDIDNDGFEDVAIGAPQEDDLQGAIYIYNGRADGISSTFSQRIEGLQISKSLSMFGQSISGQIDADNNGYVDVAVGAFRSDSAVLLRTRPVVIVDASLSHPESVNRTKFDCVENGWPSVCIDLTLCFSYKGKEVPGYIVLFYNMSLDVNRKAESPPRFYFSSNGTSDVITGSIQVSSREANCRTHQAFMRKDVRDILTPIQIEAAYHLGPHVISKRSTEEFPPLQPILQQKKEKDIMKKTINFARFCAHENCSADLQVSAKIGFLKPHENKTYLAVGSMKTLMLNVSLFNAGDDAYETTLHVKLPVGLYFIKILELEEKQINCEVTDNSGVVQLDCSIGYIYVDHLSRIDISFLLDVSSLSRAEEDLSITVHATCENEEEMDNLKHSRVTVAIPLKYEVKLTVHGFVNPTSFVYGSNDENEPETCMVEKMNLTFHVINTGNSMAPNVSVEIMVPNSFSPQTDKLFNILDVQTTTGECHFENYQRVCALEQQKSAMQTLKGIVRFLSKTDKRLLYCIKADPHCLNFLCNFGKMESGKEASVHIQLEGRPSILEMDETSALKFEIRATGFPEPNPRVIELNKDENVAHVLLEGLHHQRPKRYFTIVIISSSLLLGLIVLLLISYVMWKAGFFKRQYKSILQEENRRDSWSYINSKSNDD
Sequence (P26010 20-798): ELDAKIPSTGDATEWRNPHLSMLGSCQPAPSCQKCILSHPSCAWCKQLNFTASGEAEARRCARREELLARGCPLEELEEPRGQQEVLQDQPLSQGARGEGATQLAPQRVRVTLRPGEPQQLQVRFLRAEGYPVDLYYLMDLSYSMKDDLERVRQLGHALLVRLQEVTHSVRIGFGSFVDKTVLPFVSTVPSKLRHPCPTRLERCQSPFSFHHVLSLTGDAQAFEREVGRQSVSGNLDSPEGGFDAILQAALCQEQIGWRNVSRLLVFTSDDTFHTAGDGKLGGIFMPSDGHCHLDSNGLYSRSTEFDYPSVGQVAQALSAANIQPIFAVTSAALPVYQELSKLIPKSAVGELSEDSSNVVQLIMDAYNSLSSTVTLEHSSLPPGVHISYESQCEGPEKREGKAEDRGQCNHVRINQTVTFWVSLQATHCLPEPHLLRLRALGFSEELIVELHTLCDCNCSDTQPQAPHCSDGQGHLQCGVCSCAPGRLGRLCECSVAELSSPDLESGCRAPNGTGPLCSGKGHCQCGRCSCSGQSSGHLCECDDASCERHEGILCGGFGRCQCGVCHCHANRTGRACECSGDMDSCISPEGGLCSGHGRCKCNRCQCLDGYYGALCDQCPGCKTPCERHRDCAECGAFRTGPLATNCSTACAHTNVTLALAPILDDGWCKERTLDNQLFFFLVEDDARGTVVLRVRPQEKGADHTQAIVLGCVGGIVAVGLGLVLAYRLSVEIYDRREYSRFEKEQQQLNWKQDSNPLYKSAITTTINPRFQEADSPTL
Assay: α4β7-K562 Cell Adhesion Assay (α4β7 Mediated Adhesion/MAdCAM-1)
Type: cell-based
Settings: α4β7-K562 cell adhesion to hMAdCAM-1; read-out: α4β7 IC50
In plain terms, low IC50, meaning strictly below 100 nM, gives fulfilled, and everything else gives not fulfilled.

compound: COc1cnn(C)c(=O)c1-c1ccc(C[C@H](NC(=O)C2CCN(C(=O)OCc3ccccc3)CC2)C(=O)O)cc1
label: not fulfilled
//
compound: CN1CCC(Oc2cnn(CCO)c(=O)c2-c2ccc(C[C@H](NC(=O)c3c(Cl)cccc3Cl)C(=O)O)cc2)CC1
label: fulfilled
//
compound: COc1cnn(C)c(=O)c1-c1ccc(C[C@H](NC(=O)c2c(C)cc(C)nc2N)C(=O)O)cc1
label: not fulfilled
//
compound: COc1cc(N)c(Cl)cc1C(=O)N[C@@H](Cc1ccc(-c2c(OC)cnn(C)c2=O)cc1)C(=O)O
label: not fulfilled
//
compound: COc1cnn(C)c(=O)c1-c1ccc(C[C@H](NC(=O)O[C@H](C)c2ccccc2)C(=O)O)cc1
label: not fulfilled
//
compound: COc1cnn(C)c(=O)c1-c1ccc(C[C@H](NC(=O)C(N)C(C)C)C(=O)O)cc1 (stereo partly drawn)
label: not fulfilled
//
compound: CN[C@H](C(=O)N[C@@H](Cc1ccc(-c2c(OC)cnn(CCN3CCOCC3)c2=O)cc1)C(=O)O)[C@@H](C)OCc1ccccc1
label: not fulfilled
//
compound: COc1cnn(CCO)c(=O)c1-c1ccc(C[C@H](NC(=O)OC(C)(C)C)C(=O)O)cc1
label: not fulfilled
//
compound: CCOc1cnn(C)c(=O)c1-c1ccc(C[C@H](NC(=O)c2c(Cl)cccc2Cl)C(=O)O)cc1
label: fulfilled
//
compound: COc1cnn(C)c(=O)c1-c1ccc(C[C@H](NC(=O)c2cnc[nH]2)C(=O)O)cc1
label: not fulfilled
//
compound: COC(=O)[C@H](Cc1ccc(-c2c(OC)cnn(C)c2=O)cc1)NC(=O)c1c(Cl)cccc1Cl
label: not fulfilled
//
compound: CC(C)(C)n1ncc(-n2cncn2)c(-c2ccc(C[C@H](NC(=O)c3c(Cl)cccc3Cl)C(=O)O)cc2)c1=O
label: not fulfilled
//
compound: COc1cnn(C)c(=O)c1-c1ccc(C[C@H](NC(=O)CCC(C)(C)C)C(=O)O)cc1
label: not fulfilled
